The origin of these recorded values is ChEMBL document CHEMBL5390277.

target: C-X-C chemokine receptor type 4 (Homo sapiens, UniProt P61073); test: Antagonist activity at CXCR4 in human SUP-T1 cells assessed as inhibition of CXCL12-induced ERK phosphorylation preincubated with 15 mins followed by CXCL12 stimulation and measured after 12 mins by flow cytometry analysis; type: functional, cell-based
Sequence (P61073 whole entry): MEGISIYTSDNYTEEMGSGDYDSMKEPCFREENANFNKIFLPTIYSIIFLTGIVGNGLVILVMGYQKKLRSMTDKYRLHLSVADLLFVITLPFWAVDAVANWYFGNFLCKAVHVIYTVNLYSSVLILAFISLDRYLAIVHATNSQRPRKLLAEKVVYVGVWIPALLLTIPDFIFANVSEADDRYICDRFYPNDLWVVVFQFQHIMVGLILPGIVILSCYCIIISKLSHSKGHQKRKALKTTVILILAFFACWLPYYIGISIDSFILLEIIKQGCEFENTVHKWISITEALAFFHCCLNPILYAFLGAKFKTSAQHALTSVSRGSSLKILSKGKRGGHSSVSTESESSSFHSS
pIC50: −log10 of the molar value. Square brackets hold non-standard residues; d marks the D form. Peptide text beside a SMILES is read from it.
compounds and their reported pIC50
Measured endpoint: pIC50

compound="CC[C@@H](C)[C@@H](N)C(=O)N[C@@H](CC(C)C)C(=O)N[C@@H](CCCNC(=N)N)C(=O)N[C@@H](Cc1c[nH]c2ccccc12)C(=O)N[C@@H](CO)C(=O)N[C@@H](CCCNC(=N)N)C(=O)N[C@@H](CCCCN)C(=O)N[C@@H](CC(C)C)C(=O)N1CCC[C@H]1C(N)=O (H-[dI]LRWSRKLP-NH2)" measured_endpoint=pIC50 inequality_symbol== readout_value=5.34
compound=CC(C)C[C@H](NC(=O)[C@@H](N)C(C)C)C(=O)N[C@@H](CCCNC(=N)N)C(=O)N[C@@H](Cc1c[nH]c2ccccc12)C(=O)N[C@@H](CO)C(=O)N[C@@H](CCCNC(=N)N)C(=O)N[C@@H](CCCCN)C(=O)N[C@@H](CC(C)C)C(=O)N1CCC[C@H]1C(=O)N[C@@H](CS)C(=O)N[C@H](C(=O)N[C@@H](CO)C(=O)O)C(C)C measured_endpoint=pIC50 inequality_symbol== readout_value=5.36
compound=CC[C@H](C)[C@H](N)C(=O)N[C@H](CC(C)C)C(=O)N[C@@H](CCCNC(=N)N)C(=O)N[C@@H](Cc1c[nH]c2ccccc12)C(=O)N[C@@H](CO)C(=O)N[C@@H](CCCNC(=N)N)C(=O)N[C@@H](CCCCN)C(=O)N[C@@H](CCSC)C(=O)N1CCC[C@H]1C(=O)N[C@@H](CS)C(=O)N[C@H](C(=O)N[C@@H](CO)C(=O)O)C(C)C measured_endpoint=pIC50 inequality_symbol=< readout_value=4.00
compound="CC[C@H](C)[C@H](N)C(=O)N[C@H](C(=O)N[C@@H](CCCNC(=N)N)C(=O)N[C@@H](Cc1c[nH]c2ccccc12)C(=O)N[C@@H](CO)C(=O)N[C@@H](CCCCN)C(=O)N[C@@H](CCCCN)C(=O)N[C@H](C(=O)N1CCC[C@H]1C(=O)N[C@@H](CS)C(=O)N[C@H](C(=O)N[C@@H](CO)C(=O)O)C(C)C)C(C)C)C(C)C (H-IVRWSKKVPCVS-OH)" measured_endpoint=pIC50 inequality_symbol== readout_value=5.09

====

molecular target: UniProtKB P61073; assay: Antagonist activity at CXCR4 in human SUP-T1 cells assessed as inhibition of CXCL12-induced ERK phosphorylation preincubated with 15 mins followed by CXCL12 stimulation and measured after 12 mins by flow cytometry analysis; assay type: functional, cell-based
Square brackets hold non-standard residues; d marks the D form. Peptide text beside a SMILES is read from it.
Measured endpoint: IC50

molecule=CSCC[C@H](NC(=O)[C@H](N)Cc1ccccc1)C(=O)N[C@@H](CCCNC(=N)N)C(=O)N[C@@H](Cc1c[nH]c2ccccc12)C(=O)N[C@@H](CO)C(=O)N[C@@H](CCCNC(=N)N)C(=O)N[C@@H](CCCCN)C(=O)N[C@@H](CCSC)C(=O)N1CCC[C@H]1C(=O)N[C@@H](CS)C(=O)N[C@H](C(=O)N[C@@H](CO)C(=O)O)C(C)C readout_value="> 100 µM"
molecule=CSCC[C@H](NC(=O)[C@H](CCCCN)NC(=O)[C@H](CCCNC(=N)N)NC(=O)[C@H](CO)NC(=O)[C@H](Cc1c[nH]c2ccccc12)NC(=O)[C@H](CCCNC(=N)N)NC(=O)[C@H](CC(C)C)NC(=O)[C@H](N)Cc1ccccc1)C(=O)N1CCC[C@H]1C(=O)N[C@@H](CS)C(=O)N[C@H](C(=O)N[C@@H](CO)C(=O)O)C(C)C readout_value="> 100 µM"
molecule="CC[C@@H](C)[C@@H](N)C(=O)N[C@@H](CC(C)C)C(=O)N[C@@H](CCCNC(=N)N)C(=O)N[C@@H](Cc1c[nH]c2ccccc12)C(=O)N[C@@H](CO)C(=O)N[C@@H](CCCNC(=N)N)C(=O)N[C@@H](CCCCN)C(N)=O (H-[dI]LRWSRK-NH2)" readout_value="6.75 µM"
